Reported values of pIC50 for individual entries
- STUDY SYSTEM: alpha5beta1 (Homo sapiens (Human), UniProt P05556+P08648)
- Sequence (P08648 42-894): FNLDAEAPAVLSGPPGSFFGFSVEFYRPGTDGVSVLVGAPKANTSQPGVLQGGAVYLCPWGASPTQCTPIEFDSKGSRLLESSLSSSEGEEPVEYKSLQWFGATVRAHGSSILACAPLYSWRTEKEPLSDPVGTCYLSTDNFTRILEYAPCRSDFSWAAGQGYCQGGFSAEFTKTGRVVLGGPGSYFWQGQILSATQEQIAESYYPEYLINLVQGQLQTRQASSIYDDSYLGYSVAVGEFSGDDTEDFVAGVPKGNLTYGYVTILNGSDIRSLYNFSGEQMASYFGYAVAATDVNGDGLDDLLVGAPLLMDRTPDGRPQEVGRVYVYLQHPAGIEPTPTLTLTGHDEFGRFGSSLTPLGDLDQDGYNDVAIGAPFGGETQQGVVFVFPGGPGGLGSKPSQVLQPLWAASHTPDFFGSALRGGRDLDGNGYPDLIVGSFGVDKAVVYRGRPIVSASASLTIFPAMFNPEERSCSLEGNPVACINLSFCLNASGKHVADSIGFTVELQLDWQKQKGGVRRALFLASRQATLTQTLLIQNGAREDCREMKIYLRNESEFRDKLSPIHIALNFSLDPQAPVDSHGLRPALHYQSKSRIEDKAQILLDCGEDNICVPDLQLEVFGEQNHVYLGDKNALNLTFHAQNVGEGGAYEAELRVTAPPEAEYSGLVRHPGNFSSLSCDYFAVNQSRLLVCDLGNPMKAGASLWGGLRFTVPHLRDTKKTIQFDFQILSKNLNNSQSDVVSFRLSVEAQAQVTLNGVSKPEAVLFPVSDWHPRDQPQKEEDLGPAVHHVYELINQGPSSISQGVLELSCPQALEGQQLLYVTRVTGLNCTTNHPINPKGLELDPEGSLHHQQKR
- Sequence (P08648 895-1049): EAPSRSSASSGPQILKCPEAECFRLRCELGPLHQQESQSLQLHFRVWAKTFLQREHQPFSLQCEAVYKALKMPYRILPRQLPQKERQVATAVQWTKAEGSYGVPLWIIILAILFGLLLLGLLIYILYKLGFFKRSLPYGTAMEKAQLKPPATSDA
- Sequence (P05556 21-798): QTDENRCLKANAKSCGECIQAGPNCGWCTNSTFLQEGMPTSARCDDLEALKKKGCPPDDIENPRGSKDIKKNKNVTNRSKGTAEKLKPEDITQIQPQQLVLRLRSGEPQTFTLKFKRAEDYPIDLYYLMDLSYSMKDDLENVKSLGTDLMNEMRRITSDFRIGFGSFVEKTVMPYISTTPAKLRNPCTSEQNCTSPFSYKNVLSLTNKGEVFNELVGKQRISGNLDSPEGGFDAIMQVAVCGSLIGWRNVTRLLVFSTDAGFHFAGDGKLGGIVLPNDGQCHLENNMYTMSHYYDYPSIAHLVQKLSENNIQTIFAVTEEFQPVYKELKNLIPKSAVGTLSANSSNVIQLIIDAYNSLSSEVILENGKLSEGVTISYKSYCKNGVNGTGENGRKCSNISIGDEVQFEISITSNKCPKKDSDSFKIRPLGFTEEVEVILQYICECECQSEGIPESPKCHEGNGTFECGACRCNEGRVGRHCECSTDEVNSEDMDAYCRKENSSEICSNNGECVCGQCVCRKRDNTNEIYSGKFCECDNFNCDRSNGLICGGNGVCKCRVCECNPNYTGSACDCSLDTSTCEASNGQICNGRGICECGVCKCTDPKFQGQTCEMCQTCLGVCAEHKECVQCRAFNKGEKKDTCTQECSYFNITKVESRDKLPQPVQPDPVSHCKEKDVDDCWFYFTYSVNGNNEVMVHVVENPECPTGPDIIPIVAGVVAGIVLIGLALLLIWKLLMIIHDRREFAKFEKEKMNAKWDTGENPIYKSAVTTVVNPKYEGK
- MEASUREMENT NOTES: Cell adhesion assay, alpha5beta1-mediated (colon carcinoma cell line SW480 adhering to fibronectin)
- SETUP CONDITIONS: SW480 cells
pIC50: −log10 of the molar value.

Observe how each entry below is paired with its result.
N=C(N)Nc1cccc(C(=O)NNC(=O)NC[C@H](NC(=O)[C@@H]2CCCN2S(=O)(=O)c2ccccc2)C(=O)O)c1 | > 7.00
N=C(N)NCCCCCCNC(=O)NC[C@H](NC(=O)[C@@H]1CCCN1S(=O)(=O)c1ccccc1)C(=O)O | 5.00 to 7.00
N=C(N)NCCCCCC(=O)NC[C@H](NC(=O)[C@@H]1CCCN1S(=O)(=O)c1ccccc1)C(=O)O | 5.00 to 7.00
N=C(N)NCCCCCNC(=O)NC[C@H](NC(=O)[C@@H]1CCCN1S(=O)(=O)c1ccccc1)C(=O)O | 5.00 to 7.00
N=C(N)Nc1cc(NC(=O)CCCNC(=O)C23CC4CC(CC(C4)C2)C3)cc(C(=O)NCC(=O)NC[C@H](NC(=O)[C@@H]2CCCN2S(=O)(=O)c2ccccc2)C(=O)O)c1 | > 7.00
N=C(N)NCCCCC(=O)N[C@@H](CCCCNC(=S)Nc1ccc(C2c3ccc(O)cc3OC3=CC(=O)C=CC32)c(C(=O)O)c1)C(=O)NC[C@H](NC(=O)[C@@H]1CCCN1S(=O)(=O)c1ccccc1)C(=O)O (stereo partly shown) | < 5.00
N=C(N)Nc1cccc(C(=O)NCC(=O)NC[C@H](NC(=O)[C@@H]2CCCN2S(=O)(=O)c2ccccc2)C(=O)O)c1 | > 7.00
N=C(N)Nc1cc(NC(=O)CCCN)cc(C(=O)NCC(=O)NC[C@H](NC(=O)[C@@H]2CCCN2S(=O)(=O)c2ccccc2)C(=O)O)c1 | > 7.00
O=C(CNC(=O)c1cccc(Nc2ccccn2)c1)NC[C@H](NC(=O)[C@@H]1CCCN1S(=O)(=O)c1ccccc1)C(=O)O | 5.00 to 7.00

Read the next record carefully.
# input Query: pIC50; subject: N=C(N)NCCCCNC(=O)NC[C@H](NC(=O)[C@@H]1CCCN1S(=O)(=O)c1ccccc1)C(=O)O
# output 5.00 to 7.00

----------
- STUDY SYSTEM: alphavbeta1 (Homo sapiens, UniProt G3HZ55+P06756)
- Sequence (G3HZ55 21-798 limits assumed): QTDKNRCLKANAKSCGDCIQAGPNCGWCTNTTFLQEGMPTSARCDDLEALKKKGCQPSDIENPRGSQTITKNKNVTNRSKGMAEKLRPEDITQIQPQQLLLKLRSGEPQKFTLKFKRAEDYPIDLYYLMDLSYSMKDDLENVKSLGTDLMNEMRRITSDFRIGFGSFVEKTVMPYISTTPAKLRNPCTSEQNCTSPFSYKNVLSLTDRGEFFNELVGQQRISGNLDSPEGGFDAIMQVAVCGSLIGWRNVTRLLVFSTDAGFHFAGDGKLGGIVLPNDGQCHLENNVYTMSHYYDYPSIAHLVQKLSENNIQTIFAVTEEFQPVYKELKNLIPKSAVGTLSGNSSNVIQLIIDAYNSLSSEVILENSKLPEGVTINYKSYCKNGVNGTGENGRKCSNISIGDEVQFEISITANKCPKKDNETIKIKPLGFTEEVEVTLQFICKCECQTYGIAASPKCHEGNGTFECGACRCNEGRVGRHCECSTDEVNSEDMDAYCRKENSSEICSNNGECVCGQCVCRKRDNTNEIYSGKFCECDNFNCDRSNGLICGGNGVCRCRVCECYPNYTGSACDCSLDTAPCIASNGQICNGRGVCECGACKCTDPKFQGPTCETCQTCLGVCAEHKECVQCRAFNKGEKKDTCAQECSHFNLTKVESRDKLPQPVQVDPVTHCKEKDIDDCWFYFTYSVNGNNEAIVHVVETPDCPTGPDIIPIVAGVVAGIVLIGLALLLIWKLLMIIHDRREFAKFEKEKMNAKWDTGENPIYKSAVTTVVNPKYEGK
- Sequence (P06756 31-889 limits assumed): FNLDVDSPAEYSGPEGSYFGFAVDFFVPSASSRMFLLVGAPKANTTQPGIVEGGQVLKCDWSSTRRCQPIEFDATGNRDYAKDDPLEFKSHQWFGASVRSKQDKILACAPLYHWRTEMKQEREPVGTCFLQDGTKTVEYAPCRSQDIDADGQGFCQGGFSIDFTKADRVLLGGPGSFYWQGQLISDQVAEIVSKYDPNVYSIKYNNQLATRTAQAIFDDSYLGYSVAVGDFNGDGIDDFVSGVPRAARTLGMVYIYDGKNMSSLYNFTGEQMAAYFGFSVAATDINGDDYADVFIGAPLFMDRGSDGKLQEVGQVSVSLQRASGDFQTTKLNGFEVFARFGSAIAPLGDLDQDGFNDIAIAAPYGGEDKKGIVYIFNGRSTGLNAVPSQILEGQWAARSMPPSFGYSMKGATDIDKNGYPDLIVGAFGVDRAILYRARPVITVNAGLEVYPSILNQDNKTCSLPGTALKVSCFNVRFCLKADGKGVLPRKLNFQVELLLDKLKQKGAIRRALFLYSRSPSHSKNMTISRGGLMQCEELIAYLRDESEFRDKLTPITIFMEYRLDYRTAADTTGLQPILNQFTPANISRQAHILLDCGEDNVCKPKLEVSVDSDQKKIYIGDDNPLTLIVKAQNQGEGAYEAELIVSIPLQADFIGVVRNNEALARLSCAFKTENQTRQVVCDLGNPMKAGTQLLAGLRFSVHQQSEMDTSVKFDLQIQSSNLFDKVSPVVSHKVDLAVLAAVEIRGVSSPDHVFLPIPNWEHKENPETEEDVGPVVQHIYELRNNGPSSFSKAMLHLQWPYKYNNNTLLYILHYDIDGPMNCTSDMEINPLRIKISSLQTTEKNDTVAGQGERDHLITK
- Sequence (P06756 891-1048 limits assumed): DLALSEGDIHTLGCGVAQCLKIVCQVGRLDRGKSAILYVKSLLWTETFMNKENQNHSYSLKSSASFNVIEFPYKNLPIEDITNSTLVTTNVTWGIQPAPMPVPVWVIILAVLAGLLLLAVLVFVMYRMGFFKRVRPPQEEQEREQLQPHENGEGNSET
- MEASUREMENT NOTES: Cell adhesion assay, alphavbeta1-mediated (CHO cells transfected with human alphav adhering to the latency associated peptide of TGF-beta)
- SETUP CONDITIONS: adhesion to LAP of TGF-beta
PROPERTY: IC50

Observe how each entry below is paired with its result.
N=C(N)NCCCCCC(=O)NC[C@H](NC(=O)[C@@H]1CCCN1S(=O)(=O)c1ccccc1)C(=O)O | 100 to 10000 nM
N=C(N)Nc1cccc(C(=O)NCC(=O)NC[C@H](NC(=O)[C@@H]2CCCN2S(=O)(=O)c2ccccc2)C(=O)O)c1 | < 100 nM
N=C(N)Nc1cccc(C(=O)NNC(=O)NC[C@H](NC(=O)[C@@H]2CCCN2S(=O)(=O)c2ccccc2)C(=O)O)c1 | 100 to 10000 nM

Read the next record carefully.
# input Query: IC50; subject: N=C(N)NCCCCNC(=O)NC[C@H](NC(=O)[C@@H]1CCCN1S(=O)(=O)c1ccccc1)C(=O)O
# output < 100 nM

----------
- STUDY SYSTEM: alphavbeta1 (Homo sapiens, UniProt G3HZ55+P06756)
- MEASUREMENT NOTES: Cell adhesion assay, alphavbeta1-mediated (CHO cells transfected with human alphav adhering to the latency associated peptide of TGF-beta)
- SETUP CONDITIONS: adhesion to LAP of TGF-beta
pIC50: −log10 of the molar value.
Reported values of pIC50 for individual entries

N=C(N)NCCCCCCNC(=O)NC[C@H](NC(=O)[C@@H]1CCCN1S(=O)(=O)c1ccccc1)C(=O)O | > 7.00
N=C(N)NCCCCCNC(=O)NC[C@H](NC(=O)[C@@H]1CCCN1S(=O)(=O)c1ccccc1)C(=O)O | > 7.00
N=C(N)NCCCCC(=O)N[C@@H](CCCCNC(=S)Nc1ccc(C2c3ccc(O)cc3OC3=CC(=O)C=CC32)c(C(=O)O)c1)C(=O)NC[C@H](NC(=O)[C@@H]1CCCN1S(=O)(=O)c1ccccc1)C(=O)O (stereo partly shown) | < 5.00

Read the next record carefully.
# input Query: pIC50; subject: O=C(CNC(=O)c1cccc(Nc2ccccn2)c1)NC[C@H](NC(=O)[C@@H]1CCCN1S(=O)(=O)c1ccccc1)C(=O)O
# output 5.00 to 7.00
